I'd appreciate it if you could supply TGI values for the items below.
System: SK-OV-3 ovarian
METHOD DESCRIPTION: NCI tumour cell line growth inhibition, 48 h
*1 amine or outer side, *2 acyl side, *3 side chain or, on linkers, in order; H or OH if unused. Where a SMILES comes first, the peptide text is derived from it. Bridges are numbered along the chain shown (N, C = ends). [ ]: non-standard residue; d: D form. The star is where a group is joined. Phe(3,5-F2) = N[C@@H](Cc1cc(F)cc(F)c1)C(=O)O; Pro(4R-Me) = C[C@H]1CN[C@H](C(=O)O)C1; aThr = C[C@H](O)[C@H](N)C(=O)O; Pip = O=C(O)[C@@H]1CCCCN1; X10 = Fc1cc(C2CC2)ccc1N*; CO = O=C([*:1])[*:2]

Ask: What value of TGI on SK-OV-3 ovarian does Fc1[nH]nc2ccc([C@@H]3Nc4ccc5[nH]ncc5c4[C@H]4C5CCC(C5)[C@@H]34)cc12 (stereo not given in full) have?
Result: 16.5 µM

Ask: // lookup TGI | system=SK-OV-3 ovarian | key= Cc1cc(N(CCC#N)CCC#N)ccc1N=Nc1ccc(S(N)(=O)=O)cc1
Result: > 100 µM

Ask: # get_value(readout= TGI, system= SK-OV-3 ovarian) for COc1cc2cc(OC)c3cc4c(cc3c2c(OC)c1OC)OCO4
Result: > 100 µM

Ask: So what TGI did Nc1c(C(=O)c2cccc(CCS(N)(=O)=O)c2)cnn1-c1ccc(F)cc1 get with SK-OV-3 ovarian?
Result: > 25 µM

Ask: Recorded TGI for CCOC(=O)c1cn2c(n1)sc1cccc(C)c12 with SK-OV-3 ovarian, please?
Result: > 100 µM

Ask: Form: Entry = Cc1cc(NS(=O)(=O)c2ccc(Nc3c4ccccc4nc4c(C(=O)N5CCN(CCOS(C)(=O)=O)CC5)cccc34)cc2)no1 | System = SK-OV-3 ovarian | TGI = ____
Result: > 100 µM

Ask: Hello, I am looking for reported TGI with SK-OV-3 ovarian for COC([CH2][Hg][n]1cnc2c1c(=O)n(C)c(=O)n2C)CN1C(=O)c2ccccc2S1(=O)=O (stereo not given) . Could you help?
Result: > 100 µM

Ask: Request body: readout TGI, system SK-OV-3 ovarian, query CCOC(=O)Cn1c(C(F)(F)F)nc2nc(Cl)c(Cl)nc21 . Return the value.
Result: > 100 µM

Ask: What reported TGI corresponds to C[C@@H]1C[C@H]2C(=O)O[C@@H](C)[C@H](NC(=O)[C@H](Cc3cc(F)cc(F)c3)NC(=O)Nc3ccc(C4CC4)cc3F)C(=O)N3CCC[C@H]3C(=O)N3CCCC[C@H]3C(=O)N[C@@H](C)C(=O)N2C1 ({X10-CO}-[Phe(3,5-F2)][aThr]P[Pip]A[Pro(4R-Me)]; ester 2-C) on SK-OV-3 ovarian?
Result: 16 µM

Ask: What value of TGI on SK-OV-3 ovarian does COc1ccccc1N1C(=O)C2c3[nH]c4ccccc4c3C3CCC(C(C)(C)C)CC3C2C1=O (stereo not given) have?
Result: > 100 µM

Ask: Please tell me: TGI of CCCN(C(=O)c1ccccc1)C(C#N)c1ccc(C(C#N)N(CCC)C(=O)c2ccccc2)cc1 (stereo not given) , system SK-OV-3 ovarian?
Result: > 100 µM

Ask: Could you share what TGI was measured for O=C1CCCSC(=O)N1Cc1ccccc1 , tested on SK-OV-3 ovarian?
Result: > 100 µM

Ask: Entry COc1ccc2cc(NC(=O)N/N=C\c3ccc([N+](=O)[O-])cc3)ccc2c1 , system SK-OV-3 ovarian: what TGI was measured?
Result: > 100 µM

Ask: Report TGI for Cc1c(C(=O)CC(=O)C(=O)Nc2ccccc2C(F)(F)F)[n+](=O)c2ccccc2n1[O-] tested on SK-OV-3 ovarian.
Result: > 100 µM

Ask: For the record O=C1/C(=C/c2ccc(O)c(O)c2)CCC/C1=C\c1ccc(O)c(O)c1 , what value of TGI is listed for SK-OV-3 ovarian?
Result: 20.7 µM

Ask: Give the reported TGI for O=C1/C(=C\c2ccccc2)C(NC2CCCCC2)c2ccccc21 (stereo not given) (system: SK-OV-3 ovarian).
Result: 27 µM

Ask: Request - read-out TGI | tested on SK-OV-3 ovarian | compound Fc1ccc(NC(=S)SCc2ccc3c(c2)OCO3)cc1F
Result: > 100 µM

Ask: // map CN(C)c1ccc(/C=C\C2=[N+](C)c3ccccc3C2(C)C)cc1 to recorded TGI (system: SK-OV-3 ovarian)
Result: > 24.4 µM

Ask: // map Cc1ccc(NC(=O)Nc2ccc(-c3cccnc3)cc2N2CCC(CO)CC2)cc1 to recorded TGI (system: SK-OV-3 ovarian)
Result: > 100 µM

Ask: Find the measured TGI: item CC(C)CCS(=O)(=O)OCCCCOS(=O)(=O)CCC(C)C , target or system SK-OV-3 ovarian.
Result: > 100 µM

Ask: Quick check: TGI on SK-OV-3 ovarian, item COc1cc(/C=N\NC(=O)CN2CCN(c3cc4c(cc3F)c(=O)c(C(=O)N/N=C/c3cc(OC)c(OC)c(OC)c3)cn4C3CC3)CC2)cc(OC)c1OC ?
Result: > 53.1 µM

Ask: SK-OV-3 ovarian / TGI / COC(=O)C1SC(SC)=NC12c1ccccc1Nc1ccccc12 (stereo not given) : value?
Result: > 100 µM

Ask: Notebook: pull reported TGI for SK-OV-3 ovarian, entry O=C(Nc1ccc(F)cc1)Nc1ccc(Cl)c([N+](=O)[O-])c1
Result: 7.52 µM

Ask: Form field: TGI recorded for Nc1nc(Cl)cc(NCC2(CO)CC(=O)C2)n1 with SK-OV-3 ovarian (enter value)
Result: > 100 µM

Ask: Recall the recorded TGI for CNC(=S)OCCC(C)CCCC(C)C (stereo not given) with SK-OV-3 ovarian and state it.
Result: 41.6 µM

Ask: Checklist item: TGI tested on SK-OV-3 ovarian, entry CC(C)=CCC\C(C)=C/C=C/C(C)=C\C=C\C(C)=C/C=C/C=C(C)\C=C\C=C(C)/C=C/C=C(/C)CCC=C(C)C , value?
Result: > 100 µM

Ask: # get_value(readout= TGI, system= SK-OV-3 ovarian) for OCc1cc2ccccc2c2c3c(ccc12)OCO3
Result: 96.6 µM

Ask: # returns recorded TGI (system: SK-OV-3 ovarian) for COC(=O)c1ccccc1NC(=O)C(=O)Cc1nc2c3c(ccc2[nH]c1=O)C(=O)c1ccccc1C3=O
Result: > 100 µM

Ask: API: value(readout=TGI, system=SK-OV-3 ovarian) for record CC(C)(C)OC(=O)N[C@H]1CCN(C2CCCCC2)C1=O
Result: > 100 µM

Ask: I'm curious: which TGI was measured for CN1CCN(C2=NCCO2)CC1 tested on SK-OV-3 ovarian?
Result: > 100 µM

Ask: Give the reported TGI for OC1CSSC1Cn1cnc2c(Nc3ccc(OCc4cccc(F)c4)c(Cl)c3)ncnc21 (stereo not given) (system: SK-OV-3 ovarian).
Result: 1.75 µM

Ask: What value of TGI on SK-OV-3 ovarian does CCN(CC)N=Nc1c(C(N)=O)n[nH]c1C have?
Result: 97.9 µM

Ask: # query: TGI | item Cc1ccc2c(C)c3c(ccc4ccccc43)c[n+]2c1 | system: SK-OV-3 ovarian
Result: 57.2 µM

Ask: Query TGI on SK-OV-3 ovarian for O=C1NC(=NCCc2cccc(F)c2)S/C1=C\c1ccc2ncccc2c1
Result: > 25 µM

Ask: Test system SK-OV-3 ovarian; read-out TGI; what value for CCOC(=O)C1(C/C=C/CBr)Cc2ccccc2C1=O (stereo not given) ?
Result: 21.5 µM

Ask: # value lookup — system SK-OV-3 ovarian, readout TGI, item c1ccc(N=c2sc3ccccc3nc2Nc2ccccc2)cc1
Result: > 100 µM

Ask: Provide value of TGI for this record tested with SK-OV-3 ovarian: CC(=O)O[C@@H]1[C@H](C(C)C)[C@@H](OC(C)=O)C/C(C)=C/CC[C@]2(C)O[C@@H]12
Result: > 100 µM

Ask: Entry NC(N)=N/N=C/c1c(-c2ccc(N)cc2)nc2sccn12 , system SK-OV-3 ovarian: what TGI was measured?
Result: 64 µM

Ask: Param readout= TGI; system= SK-OV-3 ovarian; entry= CCCCCCCCCCCC(=O)OCCOCCOCCOCCOCCOCc1ccccc1 ; returns value.
Result: > 100 µM

Ask: Report TGI for NS(=O)(=O)c1ccc2c(c1)OCCOCCOCCOCCO2 tested on SK-OV-3 ovarian.
Result: > 100 µM

Taken from PubChem BioAssay (NCI).
